- Target of assay: interaction between the AnxA2 N-terminus and S100A10 (Homo sapiens, UniProt P60903)
- Sequence (P60903 whole entry, species assumed): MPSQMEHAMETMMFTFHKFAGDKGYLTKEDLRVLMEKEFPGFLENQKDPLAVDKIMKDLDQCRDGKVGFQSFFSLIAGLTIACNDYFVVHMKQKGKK
- Measurement protocol: Fluorescence screening assay (FRET competitive binding, Cy3-AnxA2(Ac1–14) peptide / Cy5-S100A10)
- Condition context: Table 2; FRET assay, 12 observations; read-out: IC50
Endpoint label: IC50 (µM)

[P] C=CCn1c(CSc2nc(C)cc(C)n2)nnc1SCC(=O)Nc1ccc(C)c(C)c1
[Q] Cc1cc(C)nc(SCc2nnc(SCC(=O)Nc3ccc(C(F)(F)F)cc3)n2-c2ccc(Cl)cc2)n1
Challenge: IC50 comparison. Which is larger, P or Q ? Field: selected label. Fill in the label of the entry you choose.
Response given: P

[a] COc1ccc(NC(=O)CSc2nnc(CSc3nc(C)cc(C)n3)n2-c2ccc(OC)cc2)cc1
[b] COc1ccc(-n2c(CSc3nc(C)cc(C)n3)nnc2SCC(=O)Nc2ccc(C)c(C)c2)cc1
Challenge: IC50 comparison. Which is larger, a or b ? Field: selected label. Fill in the label of the entry you choose.
Response given: a
